biological target: Phosphoglycerate kinase, glycosomal (Trypanosoma brucei brucei); assay: qHTS Validation Assay to Find Inhibitors of Phosphoglycerate Kinase (AID 504547); details: enzymatic PGK inhibition, coupled luminescence read-out; series mostly up to 57.5 µM
The source made the active and inactive calls. Calls follow the shape of the dose curve; as a rule, active = well fitted inhibition curve with a large enough effect; inconclusive = small, poorly fitted or top-dose-only effect; inactive = flat fitted curve, though single readings scatter.
Your response should consist of one outcome taken from active, inactive

Solved cases below.
>>> class_name("O=C(O)C1CCCN(CCC=C(c2ccccc2)c2ccccc2)C1 (stereo unspecified)")
"inactive"
>>> class_name("N[C@@H](Cc1ccc(O)c(O)c1)C(=O)O")
"active"
>>> class_name("CCCCS(=N)(=O)CCC(N)C(=O)O (stereo unspecified)")
"inactive"
>>> class_name("CC(=O)[C@H]1CC[C@H]2[C@@H]3CCC4=CC(=O)CC[C@]4(C)[C@H]3CC[C@]12C")
"inactive"
>>> class_name("Cc1ccc(S(=O)(=O)N[C@@H](Cc2ccccc2)C(=O)CCl)cc1")
"inactive"

Next up:
Please state the recorded outcome for this compound: NC(=O)c1ccc2[nH]ccc2c1
inactive

----------
experiment: qHTS profiling of the MIPE4 collection as inhibitors of Plasmodium falciparum (HB3) proliferation (AID 743347);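 also: plate controls were DMSO vehicle wells for no effect and artemisinin wells for full effect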; settings: P. falciparum HB3 in erythrocytes, SYBR Green DNA, 72 h; at 28.5 µM (top of the series) unless noted
metric: growth, % of control (%)
The reply should be a number in %, with the unit left off.

Use the examples below as a reference point.
>>> readout_number("O=C(O)CSCC(=O)NC1CCSC1=O (stereo not drawn)")
99.2
>>> readout_number("CN1CCN(c2c(F)cc3c(=O)c(C(=O)O)cn4c3c2OCN4C)CC1")
73.2
>>> readout_number("Cc1cccc(Nc2ccncc2S(=O)(=O)NC(=O)NC(C)C)c1")
95.2
>>> readout_number("CCC(=O)O[C@]1(C(=O)SCF)[C@H](C)C[C@H]2[C@@H]3C[C@H](F)C4=CC(=O)C=C[C@]4(C)[C@@]3(F)[C@@H](O)C[C@@]21C")
87.8
>>> readout_number("COC(=O)Nc1nc2ccc(S(=O)c3ccccc3)cc2[nH]1 (stereo not drawn)")
104
>>> readout_number("O=c1oc2c(O)c(O)cc3c(=O)oc4c(O)c(O)cc1c4c23")
6.72
>>> readout_number("C#CCN[C@@H]1CCc2ccccc21")
103
>>> readout_number("CC(C)(C)C(=O)OCOP(=O)(COCCn1cnc2c(N)ncnc21)OCOC(=O)C(C)(C)C")
82.4
>>> readout_number("O=C(O)C1CCCN(CCC=C(c2ccccc2)c2ccccc2)C1 (stereo not drawn)")
101
>>> readout_number("Nc1nc(=S)c2[nH]cnc2[nH]1")
216

Return value of growth, % of control for input CC(C)(Sc1cc(C(C)(C)C)c(O)c(C(C)(C)C)c1)Sc1cc(C(C)(C)C)c(O)c(C(C)(C)C)c1 , no commentary.
19.1

Return value of growth, % of control for input CC(N)C12CC3CC(CC(C3)C1)C2 (stereo not drawn) , no commentary.
96.9

Return value of growth, % of control for input O[C@@H](CNC[C@H](O)[C@H]1CCc2cc(F)ccc2O1)[C@@H]1CCc2cc(F)ccc2O1 , no commentary.
8.28

Return value of growth, % of control for input Cc1ccc(S(=O)(=O)N[C@@H](Cc2ccccc2)C(=O)CCl)cc1 , no commentary.
84.3

Return value of growth, % of control for input COCCCOc1cc(C[C@@H](C[C@H](N)[C@@H](O)C[C@H](C(=O)NCC(C)(C)C(N)=O)C(C)C)C(C)C)ccc1OC , no commentary.
86.2

----------
assay: qHTS of pediatric cancer cell lines to identify multiple opportunities for drug repurposing: Primary screen for NB1643 cells (AID 1347099); conditions: NB1643 neuroblastoma viability, CellTiter-Glo luminescence, 48 h; series mostly up to 46 µM; also: nearly all actives have a fitted effect of over 50% in size
Records with an inconclusive call do not appear. Active and inactive are the calls of the source. Calls follow the shape of the dose curve; as a rule, active = well fitted cell-killing curve with a large enough effect; inconclusive = small, poorly fitted or top-dose-only effect; inactive = no such curve, though single readings can be large or run the other way.
Your response should consist of one outcome taken from y (active), n (inactive)

Solved cases below.
>>> class_name("CC[C@H](C)C(=O)O[C@H]1C[C@@H](C)C=C2C=C[C@H](C)[C@H](CC[C@@H]3C[C@@H](O)CC(=O)O3)[C@H]21")
"n"
>>> class_name("Nc1nc(F)nc2c1ncn2[C@@H]1O[C@H](CO)[C@@H](O)[C@@H]1O")
"y"
>>> class_name("OCc1ccc(-c2nn(Cc3ccccc3)c3ccccc23)o1")
"n"
>>> class_name("O=S(=O)(c1cccc2cnccc12)N1CCCNCC1")
"n"
>>> class_name("O=c1oc2c(O)c(O)cc3c(=O)oc4c(O)c(O)cc1c4c23")
"n"
>>> class_name("NC(N)=NC(N)=NCCc1ccccc1")
"n"
>>> class_name("CCN1CCCC1CNC(=O)c1cc(S(N)(=O)=O)ccc1OC (stereo unspecified)")
"n"
>>> class_name("COc1cc2ncnc(Nc3cccc(Cl)c3)c2cc1OC")
"y"
>>> class_name("COc1c(N2CCNC(C)C2)c(F)cc2c(=O)c(C(=O)O)cn(C3CC3)c12 (stereo unspecified)")
"n"
>>> class_name("CCOC(=O)c1ccc(OC(=O)CCCCCN=C(N)N)cc1")
"n"

Next up:
Please state the recorded outcome for this molecule: CCCOc1ccc(C(=O)OCCN(CC)CC)cc1N
n

----------
assay: Quantitative High-Throughput drug screen in 47 multiple myeloma cell lines against the NCATS MIPE library collection: KMS26_JCRB cell viability assay (AID 1918975); conditions: KMS26 myeloma cells viability, CellTiter-Glo ATP, 48 h; series mostly up to 45.8 µM; also: nearly all actives have a fitted effect of over 45% in size
Inconclusive results are not listed. The source made the active and inactive calls. The call rests on the fitted dose curve; in most records, active means well fitted cell-killing curve with a large enough effect; inconclusive means small, poorly fitted or top-dose-only effect, or effect the other way; inactive means no such curve, though single readings can be large or run the other way.
Your response should consist of one outcome taken from YES = active, NO = inactive

>>> class_name("Oc1c(Cl)cc(Cl)c2cccnc12")
"YES"
>>> class_name("CC(=O)CC(c1ccccc1)c1c(O)c2ccccc2oc1=O (configuration not stated)")
"NO"
>>> class_name("O=C(NCC1CN(c2ccc(N3CCOCC3=O)cc2)C(=O)O1)c1ccc(Cl)s1 (configuration not stated)")
"NO"

Please state the recorded outcome for this compound: C[C@@H](CN1CC(=O)NC(=O)C1)N1CC(=O)NC(=O)C1
NO

Please state the recorded outcome for this compound: Cn1c(=O)c2c(ncn2CC(O)CO)n(C)c1=O (configuration not stated)
NO

Please state the recorded outcome for this compound: CO[C@@H]1[C@@H](OC(N)=O)[C@@H](O)[C@H](Oc2ccc3c(O)c(NC(=O)c4ccc(O)c(CC=C(C)C)c4)c(=O)oc3c2C)OC1(C)C
YES

Please state the recorded outcome for this compound: CC(N)C12CC3CC(CC(C3)C1)C2 (configuration not stated)
NO

Please state the recorded outcome for this compound: O=C(O)c1cc(=O)[nH]c(=O)[nH]1
NO

Please state the recorded outcome for this compound: C#CCN[C@@H]1CCc2ccccc21
NO

Please state the recorded outcome for this compound: O=NN(CCCl)C(=O)NC1CCCCC1
NO

Please state the recorded outcome for this compound: CCn1cc(C(=O)O)c(=O)c2cc(F)c(N3CCN(C)CC3)cc21
NO

Please state the recorded outcome for this compound: C[C@]12C=CC(=O)C=C1CC[C@@H]1[C@@H]2C(=O)C[C@@]2(C)[C@H]1CC[C@]2(O)C(=O)CO
NO

Please state the recorded outcome for this compound: CC(=O)Oc1ccccc1C(=O)Nc1ncc([N+](=O)[O-])s1
YES

Please state the recorded outcome for this compound: CC1(C)[C@H](C(=O)O)N2C(=O)C[C@H]2S1(=O)=O
NO

Please state the recorded outcome for this compound: Cc1noc(NS(=O)(=O)c2ccc(N)cc2)c1C
NO

Please state the recorded outcome for this compound: C[C@@H](NCCCc1cccc(C(F)(F)F)c1)c1cccc2ccccc12
NO

Please state the recorded outcome for this compound: Nc1nc(F)nc2c1ncn2[C@@H]1O[C@H](CO)[C@@H](O)[C@@H]1O
YES

Please state the recorded outcome for this compound: CCCCS(=N)(=O)CCC(N)C(=O)O (configuration not stated)
NO

Please state the recorded outcome for this compound: CC(C)(C)C(=O)OCOP(=O)(COCCn1cnc2c(N)ncnc21)OCOC(=O)C(C)(C)C
YES

Please state the recorded outcome for this compound: COc1cc2nc(N3CCCN(C)CC3)nc(NC3CCN(Cc4ccccc4)CC3)c2cc1OC
YES

Please state the recorded outcome for this compound: CNS(=O)(=O)Cc1ccc2[nH]cc(CCN(C)C)c2c1
NO

Please state the recorded outcome for this compound: O[C@@H](CNC[C@H](O)[C@H]1CCc2cc(F)ccc2O1)[C@@H]1CCc2cc(F)ccc2O1
YES

----------
test: qHTS of pediatric cancer cell lines to identify multiple opportunities for drug repurposing: Primary screen for Rh41 cells (AID 1347108); conditions: Rh41 rhabdomyosarcoma viability, CellTiter-Glo luminescence, 48 h; series mostly up to 46 µM; also: nearly all actives have a fitted effect of over 70% in size
Inconclusive results are not listed. Active and inactive are the calls of the source. Calls follow the shape of the dose curve; as a rule, active = well fitted cell-killing curve with a large enough effect; inconclusive = small, poorly fitted or top-dose-only effect; inactive = no such curve, though single readings can be large or run the other way.
Your response should consist of one outcome taken from YES = active, NO = inactive

>>> class_name("CCN1CCCC1CNC(=O)c1cc(S(N)(=O)=O)ccc1OC (stereo unspecified)")
"NO"
>>> class_name("CC(C)(C)NC(=O)[C@H]1CC[C@H]2[C@@H]3CC[C@H]4NC(=O)C=C[C@]4(C)[C@H]3CC[C@]12C")
"NO"
>>> class_name("Cn1nnc2c(C(N)=O)ncn2c1=O")
"NO"
>>> class_name("Cc1cc(NS(=O)(=O)c2ccc(N)cc2)no1")
"NO"
>>> class_name("Nc1ccc(S(=O)(=O)Nc2ccccn2)cc1")
"NO"

Please state the recorded outcome for this molecule: Nc1nc(F)nc2c1ncn2[C@@H]1O[C@H](CO)[C@@H](O)[C@@H]1O
YES

Please state the recorded outcome for this molecule: CNNCc1ccc(C(=O)NC(C)C)cc1
NO

Please state the recorded outcome for this molecule: CCn1cc(C(=O)O)c(=O)c2cc(F)c(N3CCNCC3)cc21
NO

Please state the recorded outcome for this molecule: CO[C@@H]1[C@@H](OC(N)=O)[C@@H](O)[C@H](Oc2ccc3c(O)c(NC(=O)c4ccc(O)c(CC=C(C)C)c4)c(=O)oc3c2C)OC1(C)C
NO

Please state the recorded outcome for this molecule: CN1CCCC(n2nc(Cc3ccc(Cl)cc3)c3ccccc3c2=O)CC1 (stereo unspecified)
NO

Please state the recorded outcome for this molecule: CN(Cc1cc(Br)cc(Br)c1N)C1CCCCC1
NO
